Target: endogenous glucagon receptor of primary rat hepatocytes (rat, UniProt P30082 27-485)
Sequence (P30082 27-485): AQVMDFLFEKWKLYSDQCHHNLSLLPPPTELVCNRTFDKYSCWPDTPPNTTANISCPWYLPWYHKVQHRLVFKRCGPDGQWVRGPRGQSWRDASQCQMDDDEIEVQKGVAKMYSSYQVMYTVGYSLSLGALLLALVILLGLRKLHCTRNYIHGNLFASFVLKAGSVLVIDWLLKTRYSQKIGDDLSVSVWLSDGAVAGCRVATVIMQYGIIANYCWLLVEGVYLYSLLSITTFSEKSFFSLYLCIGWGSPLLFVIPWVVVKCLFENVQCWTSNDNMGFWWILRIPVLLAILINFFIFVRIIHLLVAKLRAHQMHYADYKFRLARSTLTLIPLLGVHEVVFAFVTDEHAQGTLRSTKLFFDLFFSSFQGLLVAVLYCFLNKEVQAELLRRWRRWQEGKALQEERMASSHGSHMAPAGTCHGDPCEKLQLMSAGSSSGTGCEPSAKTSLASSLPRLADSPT
Test: cell-based or functional assay
*1 amine or outer side, *2 acyl side, *3 side chain or, on linkers, in order; H or OH if unused. Side-chain parts run from the residue outwards. [ ]: non-standard residue; d: D form. The star is where a group is joined. C18 diacid = O=C(O)CCCCCCCCCCCCCCCCC(=O)*; γGlu = O=C(O)[C@H](CCC(=O)[*:2])N[*:1]; Ac4c = NC1(C(=O)O)CCC1; Aib = CC(C)(N)C(=O)O
observed.property: EC50 [nM] (inhibition of glycogen synthesis rate in primary rat hepatocytes) (nM)

1) H-H[Ac4c]QGTFTSDYSKYLDEK([Peg3-Peg3-γGlu-C18 diacid])RAKDFIEWLESA-NH2 [H-H-Ac4c-QGTFTSDYSKYLDE-K([17-carboxy-heptadecanoyl]-isoGlu-Peg3-Peg3)-RAKDFIEWLESA-NH2] :: 1.79
2) H-H[Aib]QGTFTSDYSKYLEK([Peg3-Peg3-γGlu-C18 diacid])RAAHDFIEWLESA-NH2 [H-H-Aib-QGTFTSDYSKYLE-K([17-carboxy-heptadecanoyl]-isoGlu-Peg3-Peg3)-RAAHDFIEWLESA-NH2] :: 0.29
3) HXQGTFTSDYSKYLEKRAAKDFIEWLESA (Aib at position 2; Lys 16 side chain conjugated to [17-carboxy-heptadecanoyl]-isoGlu-GSGSGG; C-terminal amide) [H-H-Aib-QGTFTSDYSKYLE-K([17-carboxy-heptadecanoyl]-isoGlu-GSGSGG)-RAAKDFIEWLESA-NH2] :: 0.8
4) HXQGTFTSDYSKYLDSKAAHDFVEWLLSA (Aib at position 2; Lys 17 side chain conjugated to [15-carboxy-pentadecanoyl]-isoGlu; C-terminal amide) [H-H-Aib-QGTFTSDYSKYLDS-K([15-carboxy-pentadecanoyl]-isoGlu)-AAHDFVEWLLSA-NH2] :: 0.85
5) H-H[Ac4c]QGTFTSDYSKYLDERAAKDFIKWLESA-NH2 (not fully specified (residue 24)) [H-H-Ac4c-QGTFTSDYSKYLDERAAKDFI-K([17-carboxy-heptadecanoyl]-isoGlu-GSGSGG)-WLESA-NH2] :: 0.43
6) HXQGTFTSDYSKYLDKRAAKDFIEWLESA (Aib at position 2; Lys 16 side chain conjugated to [17-carboxy-heptadecanoyl]-isoGlu-GSGSGG; C-terminal amide) [H-H-Aib-QGTFTSDYSKYLD-K([17-carboxy-heptadecanoyl]-isoGlu-GSGSGG)-RAAKDFIEWLESA-NH2] :: 0.21
7) H-H[Ac4c]HGTFTSDYSKYLDEK([Peg3-Peg3-γGlu-C18 diacid])RAKDFIEWLESA-NH2 [H-H-Ac4c-HGTFTSDYSKYLDE-K([17-carboxy-heptadecanoyl]-isoGlu-Peg3-Peg3)-RAKDFIEWLESA-NH2] :: 0.11
8) HXQGTFTSDYSKYLDERAAKDFIKWLESA (Aib at position 2; Lys 24 side chain conjugated to [17-carboxy-heptadecanoyl]-isoGlu-GSGSGG; C-terminal amide) [H-H-Aib-QGTFTSDYSKYLDERAAKDFI-K([17-carboxy-heptadecanoyl]-isoGlu-GSGSGG)-WLESA-NH2] :: 0.94
